MEASURED TARGET: lipoxygenase (Rattus norvegicus, UniProt P12527)
Construct: Single cell suspensions of RBL-1 cells are homogenized to obtain the microsomal fraction containing lipoxygenase and cyclooxygenase; endogenous in cells; host or cells: RBL-1 (rat basophilic leukemia) cells, homogenate / microsomal fraction
Sequence (P12527 whole entry): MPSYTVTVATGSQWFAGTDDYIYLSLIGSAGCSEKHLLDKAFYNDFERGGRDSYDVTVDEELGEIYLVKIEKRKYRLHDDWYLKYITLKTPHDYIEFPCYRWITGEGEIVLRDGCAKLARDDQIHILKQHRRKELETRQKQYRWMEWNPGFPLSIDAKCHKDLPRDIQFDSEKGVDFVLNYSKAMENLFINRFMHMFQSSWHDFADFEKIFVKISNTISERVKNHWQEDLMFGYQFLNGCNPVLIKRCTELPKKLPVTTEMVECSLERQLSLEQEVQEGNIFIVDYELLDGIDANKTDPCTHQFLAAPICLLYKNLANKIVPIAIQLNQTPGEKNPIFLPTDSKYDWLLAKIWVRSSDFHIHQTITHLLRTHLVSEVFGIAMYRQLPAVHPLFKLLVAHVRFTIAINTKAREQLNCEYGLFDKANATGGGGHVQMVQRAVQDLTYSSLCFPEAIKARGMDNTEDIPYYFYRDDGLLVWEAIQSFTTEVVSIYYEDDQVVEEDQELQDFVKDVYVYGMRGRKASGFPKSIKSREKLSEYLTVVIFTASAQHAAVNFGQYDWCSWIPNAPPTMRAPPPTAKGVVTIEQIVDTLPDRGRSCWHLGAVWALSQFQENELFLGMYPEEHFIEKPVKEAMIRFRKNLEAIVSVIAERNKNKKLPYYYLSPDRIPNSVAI
PROCEDURE SUMMARY: inhibition of lipoxygenase derived from rat basophilic leukemia (RBL-1) cells (L1 5,12-di-HETE and L2 5-HETE formation)
Assay type: biochemical
CONDITION SET: 1 μM, RBL-1 enzyme, L2 5-HETE; read-out: % Inhibition L2 (lipoxygenase product 5-HETE)
RECORDED ENDPOINT: inhibition at 1 µM (%)

* COc1ccc(N=C2C=CC(=O)C=C2)c(CO)c1 | 96
* COc1ccc(Nc2ccc(O)cc2)c(C(C)O)c1 (stereo not shown) | 98
* OCc1ccc(Cl)cc1Nc1ccc(O)cc1 | 100
* OCc1cc(Cl)ccc1Nc1ccc(O)cc1 | 99
* COc1ccc(Nc2ccc(O)cc2)c(CO)c1 | 98
* OCc1ccccc1Nc1ccc(O)cc1 [Example 2c, 2-(4-Hydroxyphenylamino)benzenemethanol] | 94
* CC(O)c1ccccc1Nc1ccc(O)cc1 (stereo not shown) | 99

* * *

MEASURED TARGET: cyclooxygenase (Rattus norvegicus)
Construct: 14C-arachidonic acid substrate, PGD2 measured
Sequence (Q63921 27-602): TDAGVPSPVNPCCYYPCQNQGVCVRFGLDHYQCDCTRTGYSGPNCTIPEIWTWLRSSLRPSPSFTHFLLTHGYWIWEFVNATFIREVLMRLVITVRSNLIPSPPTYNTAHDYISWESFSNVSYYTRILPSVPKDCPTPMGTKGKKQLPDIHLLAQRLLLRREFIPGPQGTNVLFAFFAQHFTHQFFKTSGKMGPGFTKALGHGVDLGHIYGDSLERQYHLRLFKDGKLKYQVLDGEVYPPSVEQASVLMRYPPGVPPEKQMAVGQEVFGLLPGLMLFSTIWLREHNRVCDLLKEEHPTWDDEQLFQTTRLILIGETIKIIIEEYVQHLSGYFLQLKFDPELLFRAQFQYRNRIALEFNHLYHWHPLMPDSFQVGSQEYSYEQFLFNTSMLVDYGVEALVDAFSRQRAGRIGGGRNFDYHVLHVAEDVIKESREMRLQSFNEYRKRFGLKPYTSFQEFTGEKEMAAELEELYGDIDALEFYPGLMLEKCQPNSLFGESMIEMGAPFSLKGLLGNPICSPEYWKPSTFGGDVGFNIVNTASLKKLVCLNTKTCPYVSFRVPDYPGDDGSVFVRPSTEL
PROCEDURE SUMMARY: inhibition of cyclooxygenase derived from rat basophilic leukemia (RBL-1) cells (PGD2 formation, C1)
Assay type: biochemical
CONDITION SET: RBL-1 enzyme, read-out: % Inhibition C1 (cyclooxygenase product PGD2)
The entries below are paired with their reported inhibition at 1 µM.
RECORDED ENDPOINT: inhibition at 1 µM

* OCc1ccccc1Nc1ccc(O)cc1 [Example 2c, 2-(4-Hydroxyphenylamino)benzenemethanol] | 4%
* CC(O)c1ccccc1Nc1ccc(O)cc1 (stereo not shown) [Example 5c] | 14%
* COc1ccc(N=C2C=CC(=O)C=C2)c(CO)c1 [Example 8] | 0%
* COc1ccc(Nc2ccc(O)cc2)c(CO)c1 [Example 1c] | 2%
* OCc1ccc(Cl)cc1Nc1ccc(O)cc1 [Example 4c] | 24%
* OCc1cc(Cl)ccc1Nc1ccc(O)cc1 [Example 3c] | 6%
* COc1ccc(Nc2ccc(O)cc2)c(C(C)O)c1 (stereo not shown) [Example 6c] | 2%
